- System: Escherichia coli
- assay summary: Antibacterial activity against Escherichia coli ATCC 35218 assessed as reduction in microbial growth after 18 hrs by microbroth dilution method
- Type: functional
# True = MIC below 4 µg/mL (exclusive); False = MIC at/above 4 µg/mL

Solved entries:
COC(=O)C1=C(c2ccsc2C)O[C@](C)(/C=C/C=C/[C@@H](C)O)C1=O False
COC(=O)C1=C(c2ccsc2C)O[C@](C)(/C=C/CC[C@H](C)O)C1=O True
CCCC1=C(C(=O)OC)C(=O)[C@@](C)(/C=C/C=C/[C@H](C)O)O1 True

# check: MIC < 4 µg/mL for `COC(=O)C1=C(C)O[C@](C)(/C=C/CC[C@@H](C)O)C1=O`
False
